test: AUC (0 to infinity) in ICR mouse at 10 mg/kg,po measured upto 24 hrs by LC-MS/MS analysis; assay type: ADME, organism-based; settings: in vivo
reported-metric: AUC(0-inf) (ng·h/mL)
Numbers only here, please. The scale is ng·h/mL.

q: Identify AUC(0-inf) associated with the compound COc1ccc2c(c1)c1ncc3ccccc3c1n2CCCC(=O)NO
a: 267

q: Supply recorded AUC(0-inf) for CN(C)CCCn1c2cc3c(cc2c2ncc4ccccc4c21)OCO3 here.
a: 2040

###

For each entry below, report its Tmax value.
assay: Tmax in ICR mouse at 10 mg/kg,po measured upto 24 hrs by LC-MS/MS analysis; assay type: ADME, organism-based; settings: in vivo
Enter your answer as a number in h; do not include the unit.

q: Supply measured Tmax of COc1ccc2c(c1)c1ncc3ccccc3c1n2CCCC(=O)NO in your reply.
a: 1

q: Respond only with Tmax recorded for CN(C)CCCn1c2cc3c(cc2c2ncc4ccccc4c21)OCO3
a: 2

###

test system: HCT-116; assay: Antiproliferative activity against human HCT-116 cells assessed as inhibition of cell growth incubated for 96 hrs by MTT based ELISA; format: functional; details: HCT-116, 96 h
reported-metric: pIC50
// scale note: pIC50 = -log10(conc_M); give the bare number

q: Return reported pIC50. Input molecule: O=C(CCCn1c2cc3c(cc2c2nc(Cl)c4ccccc4c21)OCO3)NO
a: 5.73

q: Supply reported pIC50 belonging to this molecule: CC(C)Oc1ccc2c(c1)c1ncc3ccccc3c1n2CCCC(=O)NO
a: 5.67

q: Determine its reported pIC50: COc1ccc2c(c1)c1nc(Cl)c3ccccc3c1n2CCCN1CCN(C(C)C)CC1
a: 5.75

q: Supply reported pIC50 belonging to this molecule: COc1ccc2c(c1)c1nc(Cl)c3ccccc3c1n2CCCN1CCCC(O)C1 (stereo not given)
a: 5.43

q: Supply measured pIC50 of CN(C)CCCn1c2cc3c(cc2c2[nH]c(=O)c4ccccc4c21)OCO3 in your reply.
a: 6.66

###

system: MDA-MB-231; test: Antiproliferative activity against human MDA-MB-231 cells assessed as inhibition of cell growth incubated for 96 hrs by MTT based ELISA; format: functional; conditions: MDA-MB-231, 96 h
reported-metric: pIC50
Schema: pIC50 number; meaning minus log10 of the concentration expressed in molar units.

q: Using known records, supply pIC50 for COc1ccc2c(c1)c1ncc3ccccc3c1n2CCCN1CCN(C)CC1
a: 5.77

q: Determine its reported pIC50: CN(C)CCCn1c2ccccc2c2[nH]c(=O)c3ccccc3c21
a: 5.23

q: Look up and state reported pIC50 for O=C(CCCn1c2cc3c(cc2c2ncc4ccccc4c21)OCO3)NO
a: 6.02

q: Return the recorded pIC50 value; entry: COc1ccc2c(c1)c1ncc3ccccc3c1n2CCCC(=O)NO
a: 6.26

q: Recall and state the measured pIC50 for COc1ccc2c(c1)c1nc(Cl)c3ccccc3c1n2CCCN1CCN(C(C)C)CC1 .
a: 5.60

q: Supply reported pIC50 belonging to this compound: CN(C)CCCn1c2cc3c(cc2c2ncc4ccccc4c21)OCO3
a: 6.54

q: Let me know recorded pIC50 for CCOc1ccc2c(c1)c1ncc3ccccc3c1n2CCCC(=O)NO , thanks.
a: 6.10

q: Tell us which pIC50 value is on record for O=C(CCCn1c2ccc(OC(F)F)cc2c2ncc3ccccc3c21)NO
a: 5.62

q: Query pIC50 for COc1ccc2c(c1)c1nc(Cl)c3ccccc3c1n2CCCN1CCCC(O)C1 (stereo not drawn)
a: 5.30

q: Give the reported value of pIC50 for this record: O=C(CCCn1c2ccc(OC(F)F)cc2c2nc(Cl)c3ccccc3c21)NO
a: 5.43

q: Provide one value: measured pIC50 of COc1cc([C@@H]2c3cc4c(cc3[C@@H](O[C@@H]3O[C@@H]5CO[C@@H](C)O[C@H]5[C@H](O)[C@H]3O)[C@H]3COC(=O)[C@H]23)OCO4)cc(OC)c1O [ETOPOSIDE]
a: 5.54

q: // Input: CC(C)Oc1ccc2c(c1)c1[nH]c(=O)c3ccccc3c1n2CCCN(C)C . Output its pIC50 only.
a: 5.25

q: Complete the entry with pIC50 for O=C(CCCn1c2ccccc2c2nc(Cl)c3ccccc3c21)NO
a: 5.53

q: Look up pIC50 of COc1ccc2c3nc(Cl)c4ccccc4c3n(CCCN(C)C)c2c1 and report it.
a: 5.87

q: # return recorded pIC50 for input CN(C)CCCn1c2cc3c(cc2c2[nH]c(=O)c4ccccc4c21)OCO3
a: 6.32

q: // fetch pIC50 given entry O=C(CCCn1c2cc3c(cc2c2nc(Cl)c4ccccc4c21)OCO3)NO
a: 5.79

q: Annotate the compound COc1ccc2c(c1)c1nc(Cl)c3ccccc3c1n2CCCN1CCC(N(C)C)CC1 with its measured pIC50.
a: 5.39

q: Provide only the value of recorded pIC50 for COc1ccc2c(c1)c1ncc3ccccc3c1n2CCCN1CCN(C(C)C)CC1
a: 5.69

q: Read the entry CN(C)CCCn1c2ccccc2c2nc(Cl)c3ccccc3c21 and write its reported pIC50.
a: 5.71

q: Give the reported value of pIC50 for this record: COc1ccc2c3nc(Cl)c4ccccc4c3n(CCCC(=O)NO)c2c1
a: 5.51

q: For the compound COc1ccc2c(c1)c1nc(Cl)c3ccccc3c1n2CCCN1CCN(C)CC1 , give its reported pIC50.
a: 5.65

q: Tell me its pIC50 given CCOc1ccc2c(c1)c1nc(Cl)c3ccccc3c1n2CCCC(=O)NO as the entry.
a: 5.72

q: Supply measured pIC50 of COc1ccc2c(c1)c1[nH]c(=O)c3ccccc3c1n2CCCN(C)C in your reply.
a: 5.72

###

assay: Antiproliferative activity against human BEAS-2B cells assessed as inhibition of cell growth incubated for 96 hrs by MTT based ELISA; assay type: toxicity
Give IC50 at 96 h for every item shown.

q: Item COc1cc([C@@H]2c3cc4c(cc3[C@@H](O[C@@H]3O[C@@H]5CO[C@@H](C)O[C@H]5[C@H](O)[C@H]3O)[C@H]3COC(=O)[C@H]23)OCO4)cc(OC)c1O [ETOPOSIDE] : provide IC50 at 96 h
a: > 10 µM

q: Give the measured IC50 at 96 h for CCc1c2c(nc3ccc(OC(=O)N4CCC(N5CCCCC5)CC4)cc13)-c1cc3c(c(=O)n1C2)COC(=O)[C@]3(O)CC
a: > 10 µM

q: Input COc1ccc2c(c1)c1ncc3ccccc3c1n2CCCC(=O)NO , output reported IC50 at 96 h.
a: > 10 µM

q: Provide one value: measured IC50 at 96 h of CN(C)CCCn1c2cc3c(cc2c2ncc4ccccc4c21)OCO3
a: 9.57 µM

###

Kindly state pIC50 for each of the entries shown.
system: MDA-MB-231; assay: Antiproliferative activity against human MDA-MB-231 cells assessed as inhibition of cell growth incubated for 96 hrs by MTT based ELISA; assay type: functional; settings: MDA-MB-231, 96 h
// pIC50 here means minus log10 of the molar concentration (mol/L)

q: Quick one: give measured pIC50 for CC(C)Oc1ccc2c(c1)c1ncc3ccccc3c1n2CCCC(=O)NO
a: 5.75

q: # return recorded pIC50 for entry COc1ccc2c(c1)c1ncc3ccccc3c1n2CCCN(C)C
a: 5.96

q: Tell us which pIC50 value is on record for COc1ccc2c(c1)c1nc(Cl)c3ccccc3c1n2CCCC(=O)NO
a: 6.01

q: Find the measured pIC50 of CN(C)CCCn1c2cc3c(cc2c2nc(Cl)c4ccccc4c21)OCO3 and report it.
a: 6.25

q: Give pIC50 for O=C(CCCn1c2cc3c(cc2c2[nH]c(=O)c4ccccc4c21)OCO3)NO
a: 5.31

q: Provide pIC50 value for the following compound: COc1ccc2c(c1)c1nc(Cl)c3ccccc3c1n2CCCN(C)C
a: 5.92

###

system: HCT-116; assay: Antiproliferative activity against human HCT-116 cells assessed as inhibition of cell growth incubated for 96 hrs by MTT based ELISA; type: functional; conditions: HCT-116, 96 h
reported-metric: IC50

q: // fetch IC50 given entry COc1ccc2c(c1)c1nc(Cl)c3ccccc3c1n2CCCN(C)C
a: 0.82 µM

q: Report IC50 for CN(C)CCCn1c2ccccc2c2[nH]c(=O)c3ccccc3c21
a: 4.05 µM

q: State, in one line, measured IC50 of O=C(CCCn1c2ccc(OC(F)F)cc2c2ncc3ccccc3c21)NO
a: 4.07 µM

q: Dear colleague, please send me the reported IC50 for COc1ccc2c(c1)c1nc(Cl)c3ccccc3c1n2CCCN1CCC(CO)CC1 when you can.
a: > 10 µM

q: Note IC50 for the compound shown: COc1ccc2c(c1)c1nc(Cl)c3ccccc3c1n2CCCN1CCC[C@@H]1CO
a: > 10 µM

q: Using known records, supply IC50 for COc1ccc2c(c1)c1ncc3ccccc3c1n2CCCN(C)C
a: 0.62 µM

q: Input CN(C)CCCn1c2cc3c(cc2c2nc(Cl)c4ccccc4c21)OCO3 , output reported IC50.
a: 0.26 µM

q: Annotate the compound CCOc1ccc2c(c1)c1nc(Cl)c3ccccc3c1n2CCCC(=O)NO with its measured IC50.
a: 1.8 µM

q: Answer with the recorded IC50 for the compound listed here: COc1ccc2c(c1)c1nc(Cl)c3ccccc3c1n2CCCn1c(=O)c(F)cn([C@@H]2O[C@H](CO)[C@@H](O)[C@H]2O)c1=O
a: > 10 µM

q: Query IC50 for CCOc1ccc2c(c1)c1ncc3ccccc3c1n2CCCC(=O)NO
a: 1.38 µM
